Measured target: E. coli CsgA (Escherichia coli, UniProt P28307)
Construct: made in house; host or cells: E. coli NEB 3016 slyD::kan, pET11d
Sequence (P28307 23-151): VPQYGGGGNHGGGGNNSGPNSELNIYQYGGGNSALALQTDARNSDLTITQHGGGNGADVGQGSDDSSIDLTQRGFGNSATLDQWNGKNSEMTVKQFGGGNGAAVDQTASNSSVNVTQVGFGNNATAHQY
Measurement notes: In vitro ThioflavinT assay of CsgA aggregation (CsgA ThT Assay)
Format: biochemical
Condition: read-out: CsgA ThT Assay (10 μM CsgA) % Control AUC at 1005 minutes, 100 μM (activity range), CsgA 10 μM, black plates; compound 100 μM; 1005 minutes; class symbol
Endpoint: remaining activity at 100 µM

[in] Requested read-out remaining activity at 100 µM, target or system E. coli CsgA (Escherichia coli, UniProt P28307), entry Cn1c(=O)c2c(nc(CCCCCCN3CC(C(=O)O)n4c(c(-c5cccc(C(F)(F)F)c5)c(Cc5cccc6ccccc56)cc4=O)S3(=O)=O)n2C)n(C)c1=O (stereo not shown)
[out] 31 to 60%

[in] Same read-out for CCCN1CC(C(=O)O)n2c(c(-c3cccc(C(F)(F)F)c3)c(Cc3cccc4ccccc34)c(NC3CCCC3)c2=O)S1(=O)=O (stereo not shown) ?
[out] 31 to 60%

[in] Same read-out for CCc1c(Cc2cccc3ccccc23)c(-c2cccc(C(F)(F)F)c2)c2n(c1=O)C(C(=O)O)CN(C(C)C)S2(=O)=O (stereo not shown) ?
[out] 11 to 31%

[in] Same read-out for Nc1c(Cc2cccc3ccccc23)c(-c2cccc(C(F)(F)F)c2)c2scc(C(=O)O)n2c1=O ?
[out] 11 to 31%

[in] Same read-out for COC(=O)C1CSc2c(-c3cccc(C(F)(F)F)c3)c(Cc3cccc4ccccc34)cc(=O)n21 (stereo not shown) ?
[out] > 60%

[in] Same read-out for C/C=C/c1c(Cc2cccc3ccccc23)c(-c2cccc(C(F)(F)F)c2)c2n(c1=O)C(C(=O)O)CN(C)S2(=O)=O (stereo not shown) ?
[out] 11 to 31%

[in] Same read-out for Nc1c(Cc2cccc3ccccc23)c(-c2cccc(C(F)(F)F)c2)c2n(c1=O)C(C(=O)O)CNS2(=O)=O (stereo not shown) ?
[out] 11 to 31%

[in] Same read-out for CNC(=O)CCCN1CC(C(=O)O)n2c(c(-c3cccc(C(F)(F)F)c3)c(Cc3cccc4ccccc34)cc2=O)S1(=O)=O (stereo not shown) ?
[out] 31 to 60%

[in] Same read-out for CN1CC(C(=O)O)n2c(c(-c3cccc(C(F)(F)F)c3)c(Cc3cccc4ccccc34)c(NC3CCCC3)c2=O)S1(=O)=O (stereo not shown) ?
[out] 11 to 31%

[in] Same read-out for CN1CC(C(=O)O)n2c(c(-c3cccc(C(F)(F)F)c3)c(Cc3cccc4ccccc34)c(C(N)=O)c2=O)S1(=O)=O (stereo not shown) ?
[out] 11 to 31%

[in] Same read-out for CN1CC(C(=O)O)n2c(c(-c3cccc(C(F)(F)F)c3)c(Cc3cccc4ccccc34)c(N3CCOCC3)c2=O)S1(=O)=O (stereo not shown) ?
[out] 11 to 31%

[in] Same read-out for O=C(O)C1CSc2c(-c3cccc(C(F)(F)F)c3)c(Cc3cccc4ccccc34)c(CO)c(=O)n21 (stereo not shown) ?
[out] 11 to 31%

[in] Same read-out for O=C(O)C1CSc2c(-c3cccc(C(F)(F)F)c3)c(Cc3cccc4ccccc34)cc(=S)n21 (stereo not shown) ?
[out] 31 to 60%

---

inhibition at 100 µM listing for selected compounds.
Measured target: human α-synuclein (Homo sapiens, UniProt P37840)
Construct: the full-length gene for untagged human α-synuclein was inserted; made in house; host or cells: E. coli BL21(DE3), plasmid derived from pT7 or pET11a
Measurement notes: Cell-free Thioflavin T assay of α-synuclein aggregation (αSyn ThT Assay)
Type: biochemical
Condition: class symbol; αSyn 50 μM, compounds 100 μM; read-out: αSyn ThT Assay % inhibition, activity range

// known answers, use as guide
- Compound: "O=C(O)C1CN(CCc2cccc3ccccc23)c2c(-c3cccc(C(F)(F)F)c3)c(Cc3cccc4ccccc34)c(Cl)c(=O)n21 (stereo not shown) [Compound 238]"
  Measured target: "human α-synuclein (Homo sapiens, UniProt P37840)"
  Endpoint: "inhibition at 100 µM"
  Result: "> 60%"
- Compound: "N#Cc1cccc(CN2CC(C(=O)O)n3c2c(-c2cccc(C(F)(F)F)c2)c(Cc2cccc4ccccc24)c(Cl)c3=O)c1 (stereo not shown) [Compound 168]"
  Measured target: "human α-synuclein (Homo sapiens, UniProt P37840)"
  Endpoint: "inhibition at 100 µM"
  Result: "31 to 60%"
- Compound: "CCCN1CC(C(=O)O)n2c1c(-c1cccc(C(F)(F)F)c1)c(Cc1cccc3ccccc13)c(Cl)c2=O (stereo not shown) [Compound 162]"
  Measured target: "human α-synuclein (Homo sapiens, UniProt P37840)"
  Endpoint: "inhibition at 100 µM"
  Result: "> 60%"

[in] Requested read-out inhibition at 100 µM, target or system human α-synuclein (Homo sapiens, UniProt P37840), entry O=C(O)[C@H]1CN(Cc2ccccc2)c2c(-c3cccc(C(F)(F)F)c3)c(Cc3cccc4ccccc34)c(Cl)c(=O)n21 (single isomer, unassigned) [Compound 004b]
[out] 31 to 60%

[in] Same read-out for O=C(O)C1CN(Cc2ccccc2)c2c(-c3cccc(C(F)(F)F)c3)c(Cc3ccc(Cl)c4ccccc34)cc(=O)n21 (stereo not shown) [Compound 232] ?
[out] 11 to 30%

[in] Same read-out for O=C(O)C1CN(CCc2ccccc2)c2c(-c3cccc(C(F)(F)F)c3)c(Cc3cccc4ccccc34)c(Cl)c(=O)n21 (stereo not shown) [Compound 178] ?
[out] 31 to 60%

[in] Same read-out for O=C(O)C1CN(Cc2ccccc2)c2c(-c3cccc(C(F)(F)F)c3)c(Cc3cccc4ccccc34)c(F)c(=O)n21 (stereo not shown) [Compound 194] ?
[out] 31 to 60%

[in] Same read-out for O=C(O)C1CN(CCCO)c2c(-c3cccc(C(F)(F)F)c3)c(Cc3cccc4ccccc34)c(Cl)c(=O)n21 (stereo not shown) [Compound 197] ?
[out] 31 to 60%

[in] Same read-out for CCCN1CC(C(=O)O)n2c(c(-c3cccc(C(F)(F)F)c3)c(Cc3cccc4ccccc34)c(NC(=O)C(C)C)c2=O)S1(=O)=O (stereo not shown) [Compound 152] ?
[out] 31 to 60%

[in] Same read-out for N#Cc1ccc(CN2CC(C(=O)O)n3c2c(-c2cccc(C(F)(F)F)c2)c(Cc2cccc4ccccc24)c(Cl)c3=O)cc1 (stereo not shown) [Compound 171] ?
[out] 31 to 60%

[in] Same read-out for O=C(O)C1CNS(=O)(=O)c2c(-c3cccc(C(F)(F)F)c3)c(Cc3cccc4ccccc34)c(NC3CCCC3)c(=O)n21 (stereo not shown) [Compound 005] ?
[out] 31 to 60%

[in] Same read-out for CC(C)(C)c1ccc(Cc2c(-c3cccc(C(F)(F)F)c3)c3n(c(=O)c2Cl)C(C(=O)O)CN3Cc2ccccc2)cc1 (stereo not shown) [Compound 216] ?
[out] 31 to 60%

[in] Same read-out for O=C(O)C1CN(Cc2cccc3ccccc23)c2c(-c3cccc(C(F)(F)F)c3)c(Cc3cccc4ccccc34)c(Cl)c(=O)n21 (stereo not shown) [Compound 200] ?
[out] > 60%

---

remaining activity at 100 µM listing for selected compounds.
Measured target: E. coli CsgA (Escherichia coli, UniProt P28307)
Construct: made in house; host or cells: E. coli NEB 3016 slyD::kan, pET11d
Measurement notes: In vitro ThioflavinT assay of CsgA aggregation (CsgA ThT Assay)
Type: biochemical
Condition: read-out: CsgA ThT Assay (2 μM CsgA) % Control Bmax 100 μM, mean Bmax as percentage of DMSO control; CsgA 2 μM, white plates; compound 100 μM
Method: In vitro ThioflavinT assay to determine effects of compounds on CsgA aggregation. […] Protein concentration was assessed by the NanoDrop technique (Thermo Scientific), as is familiar to one skilled in the art. […] During the assay, plates were shaken initially for 5 seconds and subsequently for 3 seconds prior to fluorescent readings. Readings were performed every 15 minutes for up to 1005 minutes. The effect of compounds on CsgA aggregation in the assay was determined with data from 0-17 hours. […]
Quick note: give the figure in %, leave out the unit.

// known answers, use as guide
- Compound: "CCc1c(Cc2cccc3ccccc23)c(-c2cccc(C(F)(F)F)c2)c2n(c1=O)C(C(=O)O)CN2C (stereo not shown)"
  Measured target: "E. coli CsgA (Escherichia coli, UniProt P28307)"
  Unit abbreviation: "%"
  Quantitative readout: 27
- Compound: "CCc1c(Cc2cccc3ccccc23)c(-c2cccc(C(F)(F)F)c2)c2n(c1=O)C(C(=O)O)CN2Cc1ccccc1 (stereo not shown)"
  Measured target: "E. coli CsgA (Escherichia coli, UniProt P28307)"
  Unit abbreviation: "%"
  Quantitative readout: 19
- Compound: "O=C(O)[C@H]1CN(Cc2ccccc2)c2c(-c3cccc(C(F)(F)F)c3)c(Cc3cccc4ccccc34)c(Cl)c(=O)n21 (single isomer, unassigned) [Compound 004b]"
  Measured target: "E. coli CsgA (Escherichia coli, UniProt P28307)"
  Unit abbreviation: "%"
  Quantitative readout: 40
- Compound: "CCCN1CC(C(=O)O)n2c(c(-c3cccc(C(F)(F)F)c3)c(Cc3cccc4ccccc34)c(NC(=O)CC)c2=O)S1(=O)=O (stereo not shown)"
  Measured target: "E. coli CsgA (Escherichia coli, UniProt P28307)"
  Unit abbreviation: "%"
  Quantitative readout: 83
- Compound: "O=C(O)C1CN(Cc2ccccc2)c2c(-c3cccc(C(F)(F)F)c3)c(C(F)(F)c3cccc4ccccc34)c(Br)c(=O)n21 (stereo not shown)"
  Measured target: "E. coli CsgA (Escherichia coli, UniProt P28307)"
  Unit abbreviation: "%"
  Quantitative readout: 112
- Compound: "CN1CC(C(=O)O)n2c1c(-c1cccc(C(F)(F)F)c1)c(C(F)(F)c1cccc3ccccc13)cc2=O (stereo not shown)"
  Measured target: "E. coli CsgA (Escherichia coli, UniProt P28307)"
  Unit abbreviation: "%"
  Quantitative readout: 67
- Compound: "O=C(O)C1CN(CCCCCCN2CC(C(=O)O)n3c2c(-c2cccc(C(F)(F)F)c2)c(Cc2cccc4ccccc24)c(Cl)c3=O)c2c(-c3cccc(C(F)(F)F)c3)c(Cc3cccc4ccccc34)c(Cl)c(=O)n21 (stereo not shown)"
  Measured target: "E. coli CsgA (Escherichia coli, UniProt P28307)"
  Unit abbreviation: "%"
  Quantitative readout: 10
- Compound: "O=C(O)C1CN(CC2CCCCC2)c2c(-c3cccc(C(F)(F)F)c3)c(Cc3cccc4ccccc34)c(Cl)c(=O)n21 (stereo not shown)"
  Measured target: "E. coli CsgA (Escherichia coli, UniProt P28307)"
  Unit abbreviation: "%"
  Quantitative readout: 21
- Compound: "CC(C)N1CC(C(=O)O)n2c1c(-c1cccc(C(F)(F)F)c1)c(Cc1cccc3ccccc13)c(Cl)c2=O (stereo not shown)"
  Measured target: "E. coli CsgA (Escherichia coli, UniProt P28307)"
  Unit abbreviation: "%"
  Quantitative readout: 48
- Compound: "O=C(O)C1CN(Cc2ccccc2)c2c(-c3cccc(C(F)(F)F)c3)c(Cc3cccc4ccccc34)cc(=O)n21 (stereo not shown)"
  Measured target: "E. coli CsgA (Escherichia coli, UniProt P28307)"
  Unit abbreviation: "%"
  Quantitative readout: 74

[in] Sample CC(C)(C)c1ccc(CN2CC(C(=O)O)n3c2c(-c2cccc(C(F)(F)F)c2)c(Cc2cccc4ccccc24)c(Cl)c3=O)cc1 (stereo not shown) — what was its remaining activity at 100 µM?
[out] 25

[in] Same read-out for CCCN1CC(C(=O)O)n2c(cc(Cc3cccc4ccccc34)c(NC3CCCC3)c2=O)S1(=O)=O (stereo not shown) ?
[out] 34

[in] Same read-out for CCNC(=O)c1c(Cc2cccc3ccccc23)c(-c2cccc(C(F)(F)F)c2)c2n(c1=O)C(C(=O)O)CN(C)S2(=O)=O (stereo not shown) ?
[out] 90

[in] Same read-out for O=C(O)[C@@H]1CN(Cc2ccccc2)c2c(-c3cccc(C(F)(F)F)c3)c(Cc3cccc4ccccc34)c(Br)c(=O)n21 (single isomer, unassigned) ?
[out] 49

[in] Same read-out for O=C(O)C1CN(Cc2ccccc2)c2c(-c3cccc(Br)c3)c(Cc3cccc4ccccc34)c(Cl)c(=O)n21 (stereo not shown) ?
[out] 39

[in] Same read-out for O=C(O)C1CN(Cc2cccnc2)c2c(-c3cccc(C(F)(F)F)c3)c(Cc3cccc4ccccc34)c(Cl)c(=O)n21 (stereo not shown) ?
[out] 64

[in] Same read-out for O=C(O)c1c(Cc2cccc3ccccc23)c(-c2cccc(C(F)(F)F)c2)c2n(c1=O)C(C(=O)O)CN2Cc1ccccc1 (stereo not shown) ?
[out] 64

[in] Same read-out for O=C(O)C1CN(CCCO)c2c(-c3cccc(C(F)(F)F)c3)c(Cc3cccc4ccccc34)c(Cl)c(=O)n21 (stereo not shown) ?
[out] 64
